- procedure details: UV-visible absorption and fluorescence spectra, fluorescence quantum yields in solution
- Type: physicochemical
- experimental parameters: methylene chloride solution (Table 10, Example 14)
Parameter Absorption maxima: see the listing below.

| molecule | unit string | Absorption maxima |
| --- | --- | --- |
| C#CC1=C(C)C2=C(c3ccc(OCCCCCCCCCCCC)c(OCCCCCCCCCCCC)c3)c3c(C)c(C#C)c(C)n3[B-](F)(F)[N+]2=C1C [Compound 6b] | nm | 539 |
| CCCCCCCCCCCCOc1ccc(C2=C3C(C)=C(C#C[Si](C)(C)C)C(C)=[N+]3[B-](F)(F)n3c(C)c(C#C[Si](C)(C)C)c(C)c32)cc1OCCCCCCCCCCCC [Compound 5b] | nm | 554 |
| CCCCCCCCCCCCOc1ccc(C2=C3C(C)=C(I)C(C)=[N+]3[B-](F)(F)n3c(C)c(I)c(C)c32)cc1OCCCCCCCCCCCC [Compound 4b] | nm | 534 |
| CCCCCCCCCCCCOc1ccc(C2=C3C(C)=C(C#C[Si](C)(C)C)C(C)=[N+]3[B-](F)(F)n3c(C)c(C#C[Si](C)(C)C)c(C)c32)cc1 [Compound 5a] | nm | 553 |
| CCCCCCCCCCCCOc1ccc(C2=C3C(C)=C(I)C(C)=[N+]3[B-](F)(F)n3c(C)c(I)c(C)c32)cc1 [Compound 4a] | nm | 533 |
| CCCCCCCCCCCCOc1ccc(C2=C3C(C)=CC(C)=[N+]3[B-](F)(F)n3c(C)cc(C)c32)cc1 [Compound 3a] | nm | 501 |
| CCCCCCCCCCCCOc1ccc(C2=C3C(C)=CC(C)=[N+]3[B-](F)(F)n3c(C)cc(C)c32)cc1OCCCCCCCCCCCC [Compound 3b] | nm | 502 |
| C#CC1=C(C)C2=C(c3ccc(OCCCCCCCCCCCC)cc3)c3c(C)c(C#C)c(C)n3[B-](F)(F)[N+]2=C1C [Compound 6a] | nm | 538 |

----------
Parameter Quantum yield: see the listing below.
- procedure details: UV-visible absorption and fluorescence spectra, fluorescence quantum yields in solution
- Type: physicochemical
- experimental parameters: CH2Cl2 solution; fluorescein reference (Example 2)

| compound | Quantum yield |
| --- | --- |
| COc1cc(C2=C3C(C)=CC(C)=[N+]3[B-](F)(F)n3c(C)cc(C)c32)cc(OC)c1OC [Compound 9] | 71.5% |
| COc1cc(C2=C3C(C)=C(I)C(C)=[N+]3[B-](F)(F)n3c(C)c(I)c(C)c32)cc(OC)c1OC [Compound 10] | 7.52% |
| COc1ccc(C2=C3C(C)=CC(C)=[N+]3[B-](F)(F)n3c(C)cc(C)c32)cc1 [Compound 14] | 80.1% |
| CC1=C(I)C(C)=[N+]2C1=C(c1c(C)cccc1C)c1c(C)c(I)c(C)n1[B-]2(F)F [Compound 19] | 8.64% |
| COc1ccc(C2=C3C(C)=C(I)C(C)=[N+]3[B-](F)(F)n3c(C)c(I)c(C)c32)cc1 [Compound 15] | 5.72% |
| CC1=CC(C)=[N+]2C1=C(c1c(C)cccc1C)c1c(C)cc(C)n1[B-]2(F)F [Compound 18] | 86.7% |

----------
- procedure details: UV-visible absorption and fluorescence spectra, fluorescence quantum yields in solution
- Format: physicochemical
- experimental parameters: DMF solution (Table 3, Example 2)

| compound | unit string | Absorption maxima |
| --- | --- | --- |
| COc1ccc(C2=C3C(C)=CC(C)=[N+]3[B-](F)(F)n3c(C)cc(C)c32)cc1 [Compound 14] | nm | 500 |
| COc1cc(C2=C3C(C)=CC(C)=[N+]3[B-](F)(F)n3c(C)cc(C)c32)cc(OC)c1OC [Compound 9] | nm | 501 |
| COc1cc(C2=C3C(C)=C(I)C(C)=[N+]3[B-](F)(F)n3c(C)c(I)c(C)c32)cc(OC)c1OC [Compound 10] | nm | 534 |
| CC1=CC(C)=[N+]2C1=C(c1c(C)cccc1C)c1c(C)cc(C)n1[B-]2(F)F [Compound 18] | nm | 502 |
| COc1ccc(C2=C3C(C)=C(I)C(C)=[N+]3[B-](F)(F)n3c(C)c(I)c(C)c32)cc1 [Compound 15] | nm | 533 |
| CC1=C(I)C(C)=[N+]2C1=C(c1c(C)cccc1C)c1c(C)c(I)c(C)n1[B-]2(F)F [Compound 19] | nm | 536 |
